System: SK-OV-3 ovarian
Experiment: NCI-60 one-dose screen, 48 h (100 = growth as untreated, 0 = no growth, -100 = all killed)
Conditions: 10 µM unless noted
This is part of a sample that, as a whole, favours compounds with a hit. Of some 83,000 tested, about 20% had one in any assay.
measured.parameter: growth (%)

{"compound": "NC(=Nc1ccccc1)SCCCCSC(N)=Nc1ccccc1", "unit.of.measurement": "%", "reported.value": 108}
{"compound": "Fc1ccc(-c2nnc(/C=C/c3cn(-c4ccccc4)nc3-c3ccccc3)o2)cc1", "unit.of.measurement": "%", "reported.value": 85.5}
{"compound": "S=C1SCN(Cc2ccccc2)CN1Cc1ccco1", "unit.of.measurement": "%", "reported.value": 96.2}
{"compound": "O=C1/C(=C/c2ccc([N+](=O)[O-])o2)Oc2ccc(Cl)cc21", "unit.of.measurement": "%", "reported.value": 85.6}
{"compound": "CN1C(=O)/C(=C/c2nc(-c3cccc(F)c3)n3ccccc23)c2ccccc21", "unit.of.measurement": "%", "reported.value": 66.6}
{"compound": "C=CCCCCCCCCC(=O)[O][Sn]([CH2]CCC)([CH2]CCC)[CH2]CCC", "unit.of.measurement": "%", "reported.value": -98.8}
{"compound": "CC1=CC(=O)C(C(C)=Nc2ccccc2Cl)C(=O)O1 (stereo not drawn)", "unit.of.measurement": "%", "reported.value": 104}
{"compound": "N#Cc1cnc2cc(OC[C@H](O)CO)c(NC(=O)CC3CSSC3)cc2c1Nc1ccc(OCc2cccc(F)c2)c(Cl)c1", "unit.of.measurement": "%", "reported.value": -87.5}
{"compound": "CCCCCCC(C)(O)c1ccccc1 (stereo not drawn)", "unit.of.measurement": "%", "reported.value": 103}
{"compound": "CCN1C2=C(SC(=S)C1=C1SC(C(=O)OC)=C(C(=O)OC)S1)SC(=Nc1ccc(OC)cc1)C2=O", "unit.of.measurement": "%", "reported.value": 61}
{"compound": "CC(=O)n1c2ccccc2c2ccccc21", "unit.of.measurement": "%", "reported.value": 122}
{"compound": "O=C1Cc2cc(CCn3cncn3)c(Cl)cc2N1", "unit.of.measurement": "%", "reported.value": 79.3}
{"compound": "CCCCCCCCCCCCCCCCCc1nccn1CCO", "unit.of.measurement": "%", "reported.value": 94.6}
{"compound": "O=C(C(=O)N1CCCCC1)c1ccc(OC2OC(CO)C(O)C(O)C2O)cc1 (stereo not drawn)", "unit.of.measurement": "%", "reported.value": 105}
{"compound": "Cn1cc(-c2csc(-c3c[nH]c4ncccc34)n2)c2cc(F)cnc21", "unit.of.measurement": "%", "reported.value": 81.8}
{"compound": "O=C(O)c1ccc(NC(=O)c2cccc(Nc3ccnc(C(F)(F)F)c3)c2)cc1", "unit.of.measurement": "%", "reported.value": 105}
{"compound": "COc1cc(C2CC(=O)Nc3c2cc(Br)c2ccccc32)cc(Br)c1OC (stereo not drawn)", "unit.of.measurement": "%", "reported.value": -15.1}
{"compound": "O=C(CSc1nnc(Nc2ccccc2)s1)NCCc1ccc(F)cc1", "unit.of.measurement": "%", "reported.value": 113}
{"compound": "CCN(CC)CCCNCCCNc1cc(OC)cc2cccnc12", "unit.of.measurement": "%", "reported.value": 111}
{"compound": "O=C(Nc1ccc(Cl)cc1)Nc1ccc(Nc2nncc3ccccc23)cc1", "unit.of.measurement": "%", "reported.value": 38.2}
{"compound": "COc1ccc(-c2cn(-c3ccccc3)c(-c3ccccc3)n2)cc1OC", "unit.of.measurement": "%", "reported.value": 209}
{"compound": "O=C(Nc1cccc2ccccc12)c1cc2c(cc1Br)OCO2", "unit.of.measurement": "%", "reported.value": 80.9}
{"compound": "CCCCCCCCCCCCNc1ncnc2[nH]ncc12", "unit.of.measurement": "%", "reported.value": 105}
